These entries and their values trace back to ChEMBL document CHEMBL1136118.

Recorded measurements of MIC, one per entry
test system: Enterobacter cloacae; test: In vitro antibacterial activity against Enterobacter cloacae ATCC 35030; assay type: functional

Please review the entries below; each comes with its answer.
{"compound": "CNC[C@H](O)C[C@@H](N)CC(=O)NN(C)CC(=O)O", "MIC": "16 µg/mL"}
{"compound": "CN(CC(=O)O)NC(=O)C[C@H](N)C[C@@H](O)CN", "MIC": "8 µg/mL"}
{"compound": "NC[C@H](O)C[C@@H](N)CC(=O)NN1CCC[C@H]1C(=O)O", "MIC": "> 256 µg/mL"}
{"compound": "CCNC[C@H](O)C[C@@H](N)CC(=O)NN(C)CC(=O)O", "MIC": "16 µg/mL"}
{"compound": "CN(CC(=O)O)NC(=O)C[C@H](N)C[C@@H](O)CNCc1ccccc1", "MIC": "64 µg/mL"}

Query: Which MIC value belongs to CCCNC[C@H](O)C[C@@H](N)CC(=O)NN(C)CC(=O)O ?
Result: > 256 µg/mL

Query: Which MIC value belongs to CN(CP(C)(=O)O)NC(=O)C[C@H](N)C[C@@H](O)CN ?
Result: > 256 µg/mL

Query: Which MIC value belongs to CN(CC(=O)O)NC(=O)C[C@H](N)C[C@@H](O)CNC(N)=O ?
Result: > 256 µg/mL

* * *

tested on: Escherichia coli; test: In vitro antibacterial activity against Escherichia coli MG1655 tolC; assay type: functional
parameter: MIC

Please review the entries below; each comes with its answer.
{"molecule": "CN(CP(=O)(O)O)NC(=O)C[C@H](N)C[C@@H](O)CN", "MIC": "> 256 µg/mL"}
{"molecule": "CN(CC(=O)O)NC(=O)C[C@H](N)C[C@H](O)CCN", "MIC": "> 256 µg/mL"}
{"molecule": "CN(CC(=O)O)NC(=O)C[C@H](N)CC(O)CN1CC[C@@H](N)C1 (stereo partly drawn)", "MIC": "> 256 µg/mL"}
{"molecule": "CN(CC(=O)O)NC(=O)C[C@H](N)C[C@@H](O)CNCc1ccccc1", "MIC": "16 µg/mL"}
{"molecule": "CN(CC(=O)O)NC(=O)C[C@H](N)CC(O)CN1CC[C@H](N)C1 (stereo partly drawn)", "MIC": "> 256 µg/mL"}

Query: Which MIC value belongs to CN(Cc1nn[nH]n1)NC(=O)C[C@H](N)C[C@@H](O)CN ?
Result: > 256 µg/mL

Query: Which MIC value belongs to CN(CC(=O)O)NC(=O)C[C@H](N)CC(O)CN1CCNCC1 (stereo partly drawn) ?
Result: > 256 µg/mL

* * *

test system: Klebsiella pneumoniae; test: In vitro antibacterial activity against Klebsiella pneumoniae […]; assay type: functional
parameter: MIC

{"molecule": "CN(CP(=O)(O)O)NC(=O)C[C@H](N)C[C@@H](O)CN", "MIC": "> 256 µg/mL"}
{"molecule": "CC(C)CCCNC[C@H](O)C[C@@H](N)CC(=O)NN(C)CC(=O)O", "MIC": "> 256 µg/mL"}
{"molecule": "CN(CC(=O)O)NC(=O)C[C@H](N)CC(O)CN1CC[C@H](N)C1 (stereo partly drawn)", "MIC": "> 256 µg/mL"}
{"molecule": "NC[C@H](O)C[C@@H](N)CC(=O)NOCC(=O)O", "MIC": "> 256 µg/mL"}
{"molecule": "CN(CC(=O)O)NC(=O)C[C@H](N)CC(O)CN1CCOCC1 (stereo partly drawn)", "MIC": "> 256 µg/mL"}

Query: Which MIC value belongs to CN(CC(=O)O)NC(=O)C[C@H](N)CC(O)CN1CCNCC1 (stereo partly drawn) ?
Result: > 256 µg/mL

Query: Which MIC value belongs to NC[C@H](O)C[C@@H](N)CC(=O)NN1CCC[C@@H]1C(=O)O ?
Result: > 256 µg/mL

Query: Which MIC value belongs to CCNC[C@H](O)C[C@@H](N)CC(=O)NN(C)CC(=O)O ?
Result: 8 µg/mL

Query: Which MIC value belongs to CN(CC(=O)O)NC(=O)C[C@H](N)C[C@H](O)CN ?
Result: 64 µg/mL

Query: Which MIC value belongs to CN(CC(=O)O)NC(=O)C[C@H](N)C[C@H](O)CCN ?
Result: > 256 µg/mL

* * *

system: Escherichia coli; assay: In vitro antibacterial activity against Escherichia coli ATCC 25922; assay type: functional
Recorded measurements of MIC, one per entry

Please review the entries below; each comes with its answer.
{"compound": "CC(ONC(=O)C[C@H](N)C[C@@H](O)CN)C(=O)O (stereo partly drawn)", "target_or_system": "Escherichia coli", "MIC": "> 256 µg/mL"}
{"compound": "CC(C)CCCNC[C@H](O)C[C@@H](N)CC(=O)NN(C)CC(=O)O", "target_or_system": "Escherichia coli", "MIC": "> 256 µg/mL"}

Query: Which MIC value belongs to NC[C@H](O)C[C@@H](N)CC(=O)NN1CCC[C@@H]1C(=O)O ?
Result: > 256 µg/mL

Query: Which MIC value belongs to CN(CC(=O)O)NC(=O)C[C@H](N)CC(O)CN1CC[C@@H](N)C1 (stereo partly drawn) ?
Result: > 256 µg/mL

* * *

system: Enterobacter cloacae; assay: In vitro antibacterial activity against Enterobacter cloacae ATCC 35030; format: functional
Recorded measurements of MIC, one per entry

Please review the entries below; each comes with its answer.
{"compound": "NC[C@H](O)C[C@@H](N)CC(=O)NN1CCC[C@@H]1C(=O)O", "MIC": "> 256 µg/mL"}
{"compound": "CN(CC(=O)O)NC(=O)C[C@H](N)CC(O)CN1CC[C@H](N)C1 (stereo not given in full)", "MIC": "> 256 µg/mL"}
{"compound": "CC(ONC(=O)C[C@H](N)C[C@@H](O)CN)C(=O)O (stereo not given in full)", "MIC": "> 256 µg/mL"}
{"compound": "CN(CC(=O)O)NC(=O)C[C@H](N)C[C@H](O)CN", "MIC": "128 µg/mL"}
{"compound": "CC(C)C[C@H](N)C(=O)NC[C@H](O)C[C@@H](N)CC(=O)NN(C)CC(=O)O", "MIC": "16 µg/mL"}
{"compound": "CN(CC(=O)O)NC(=O)C[C@H](N)CC(O)CN1CCOCC1 (stereo not given in full)", "MIC": "> 256 µg/mL"}

Query: Which MIC value belongs to CC(C)CCCNC[C@H](O)C[C@@H](N)CC(=O)NN(C)CC(=O)O ?
Result: > 256 µg/mL

Query: Which MIC value belongs to NC[C@H](O)C[C@@H](N)CC(=O)NOCC(=O)O ?
Result: > 256 µg/mL

Query: Which MIC value belongs to CN(CC(=O)O)NC(=O)C[C@H](N)CC(O)CN1CCNCC1 (stereo not given in full) ?
Result: > 256 µg/mL

* * *

test system: Escherichia coli; assay: In vitro antibacterial activity against Escherichia coli MG1655 tolC; format: functional
parameter: MIC

Please review the entries below; each comes with its answer.
{"compound": "CN(CP(C)(=O)O)NC(=O)C[C@H](N)C[C@@H](O)CN", "MIC": "> 256 µg/mL"}
{"compound": "CN(CC(=O)O)NC(=O)C[C@H](N)C[C@H](O)CN", "MIC": "32 µg/mL"}
{"compound": "NC[C@H](O)C[C@@H](N)CC(=O)NN1CCC[C@@H]1C(=O)O", "MIC": "> 256 µg/mL"}
{"compound": "CN(CC(=O)O)NC(=O)C[C@H](N)CC(O)CN1CCOCC1 (stereo partly specified)", "MIC": "> 256 µg/mL"}
{"compound": "NC[C@H](O)C[C@@H](N)CC(=O)NN1CCC[C@H]1C(=O)O", "MIC": "> 256 µg/mL"}
{"compound": "CN(CC(=O)O)NC(=O)C[C@H](N)C[C@@H](O)CN [NEGAMYCIN]", "MIC": "2 µg/mL"}
{"compound": "CN(CC(=O)O)NC(=O)C[C@H](N)C[C@@H](O)CNC(N)=O", "MIC": "> 256 µg/mL"}
{"compound": "CNC[C@H](O)C[C@@H](N)CC(=O)NN(C)CC(=O)O", "MIC": "4 µg/mL"}

Query: Which MIC value belongs to NC[C@H](O)C[C@@H](N)CC(=O)NOCC(=O)O ?
Result: > 256 µg/mL

Query: Which MIC value belongs to CCCNC[C@H](O)C[C@@H](N)CC(=O)NN(C)CC(=O)O ?
Result: > 256 µg/mL

Query: Which MIC value belongs to CC(C)C[C@H](N)C(=O)NC[C@H](O)C[C@@H](N)CC(=O)NN(C)CC(=O)O ?
Result: 8 µg/mL

Query: Which MIC value belongs to CN(CC(=O)O)NC(=O)C[C@H](N)C[C@@H](O)CCN ?
Result: > 256 µg/mL

Query: Which MIC value belongs to CC(C)CCCNC[C@H](O)C[C@@H](N)CC(=O)NN(C)CC(=O)O ?
Result: > 256 µg/mL

Query: Which MIC value belongs to CN(CC(=O)O)NC(=O)C[C@H](N)C[C@@H](O)CN=C(N)N ?
Result: 128 µg/mL

Query: Which MIC value belongs to CC(ONC(=O)C[C@H](N)C[C@@H](O)CN)C(=O)O (stereo partly specified) ?
Result: > 256 µg/mL

Query: Which MIC value belongs to CCNC[C@H](O)C[C@@H](N)CC(=O)NN(C)CC(=O)O ?
Result: 4 µg/mL
